target: P2Y12 receptor (P2Y12R) (Homo sapiens, UniProt Q9H244); assay: inhibition of forskolin-induced cAMP formation
Sequence (Q9H244 whole entry): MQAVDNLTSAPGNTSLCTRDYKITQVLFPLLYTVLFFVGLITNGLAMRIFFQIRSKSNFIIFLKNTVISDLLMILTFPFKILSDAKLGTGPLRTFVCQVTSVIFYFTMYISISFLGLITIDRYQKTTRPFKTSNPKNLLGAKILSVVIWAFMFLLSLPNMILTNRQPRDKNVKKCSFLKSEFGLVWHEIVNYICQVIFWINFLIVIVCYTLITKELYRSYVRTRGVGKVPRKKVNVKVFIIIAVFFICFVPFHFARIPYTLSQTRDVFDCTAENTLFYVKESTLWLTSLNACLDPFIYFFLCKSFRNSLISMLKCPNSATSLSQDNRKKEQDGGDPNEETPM
METRIC_NAME: EC50 (nM)
Answer format: numeric, nM implied, no suffix.

The reported P2Y12 receptor (P2Y12R) (Homo sapiens, UniProt Q9H244) EC50 of "CSc1nc(N)c2ncn([C@@H]3O[C@H](COP(=O)(O)OP(=O)(O)O)[C@@H](O)[C@H]3O)c2n1" is 0.26
